Could you please report measured pIC50 for the items listed next?
# Organism: Mus musculus
# ASSAY_PROTOCOL: Inhibition of bone resorption in the calvaria assay of mouse
# Type: functional
When answering, recall that pIC50 equals minus log10 of the concentration in mol/L, and write that number alone.

Tell us which pIC50 value is on record for NCCC(O)(P(=O)(O)O)P(=O)(O)O [PAMIDRONIC ACID]
6.70

Look up pIC50 of O.O=P(O)(O)C(O)(Cn1ccnc1)P(=O)(O)O [ZOLEDRONIC ACID] and report it.
8.70

Quote pIC50 reported for `Cc1cnc(NC(P(=O)(O)O)P(=O)(O)O)s1` please.
7.40

Using known records, supply pIC50 for `CN(CCc1ccccc1)CCC(O)(P(=O)(O)O)P(=O)(O)O`
7.70

Quote pIC50 reported for `CN(CCCc1ccccc1)CCC(O)(P(=O)(O)O)P(=O)(O)O` please.
7.30

Let me know recorded pIC50 for NCCCC(O)(P(=O)(O)O)P(=O)(O)O [ALENDRONIC ACID] , thanks.
7.30

Please report pIC50 for the following compound: `CN(CCCOc1ccccc1)CCC(O)(P(=O)(O)O)P(=O)(O)O`
7.40

----------
# Tested on: Rattus norvegicus
# ASSAY_PROTOCOL: Effective dose after subcutaneous administration to TPTX rats for 50% reduction of hypercalcemia
# Format: functional
# ASSAY_SETUP: sc
Rule: ED50 below 0.04 mg/kg gives 1 (yes). Equal to or above 0.04 mg/kg gives 0 (no).

Please indicate whether the reported ED50 of `O=P(O)(O)C(O)(CCCN1CCCC1)P(=O)(O)O` is strictly below 0.04 mg/kg.
1 (yes)

Quick check: ED50 of O=P(O)(O)C(NC1CCCCCC1)P(=O)(O)O [INCADRONIC ACID] under 0.04 mg/kg?
1 (yes)

Take the molecule `Cc1csc(NC(P(=O)(O)O)P(=O)(O)O)n1` and say whether its ED50 is less than 0.04 mg/kg.
0 (no)

Strictly below 0.04 mg/kg in ED50? NCCC(O)(P(=O)(O)O)P(=O)(O)O [PAMIDRONIC ACID]
0 (no)

Does the reported ED50 of `CCCCN(CCCOc1ccccc1)CCC(O)(P(=O)(O)O)P(=O)(O)O` stay below 0.04 mg/kg?
0 (no)

----------
# Tested on: Rattus norvegicus
# ASSAY_PROTOCOL: Effective dose after subcutaneous administration to TPTX rats for 50% reduction of hypercalcemia
# Assay type: functional
# ASSAY_SETUP: sc
RECORDED_METRIC: ED50 (mg/kg)
State just the number; it will be interpreted in mg/kg.

# return recorded ED50 for entry `O=P(O)(O)C(O)(CCCN1CCC(c2ccccc2)CC1)P(=O)(O)O`
0.1

Answer with the recorded ED50 of `O=P(O)(O)C(O)(CCNCCCSc1ccccc1)P(=O)(O)O` only.
0.007

Give the value of ED50 reported for the following: `CN(CCCCCCOc1ccccc1)CCC(O)(P(=O)(O)O)P(=O)(O)O`
7.5

Determine from records and report ED50 for O=P(O)(O)C(O)(CCN1CCC(c2ccc(Cl)cc2)C1)P(=O)(O)O (stereo not drawn)
0.0035

Specify measured ED50 for `O=P(O)(O)C(O)(CCNCCCCc1ccccc1)P(=O)(O)O` .
0.001

Please give measured ED50 of the following entry: `O=P(O)(O)C(Nc1ncc(CCc2ccccc2)s1)P(=O)(O)O`
0.0027

Give me measured ED50, please, for this compound: `Cc1cnc(NC(P(=O)(O)O)P(=O)(O)O)s1`
0.0015

Identify measured ED50 associated with `CCN(CC)CCC(O)(P(=O)(O)O)P(=O)(O)O`
0.003

Kindly indicate its recorded ED50. Item: CC(CC(O)(P(=O)(O)O)P(=O)(O)O)N(C)C (stereo not drawn)
0.018

Supply measured ED50 of `CN(CCCCOc1ccccc1)CCC(O)(P(=O)(O)O)P(=O)(O)O` in your reply.
0.004

Determine from records and report ED50 for `O=P(O)(O)C(O)(Cc1nccn1Cc1ccccc1)P(=O)(O)O`
0.025

Consider the compound O=P(O)(O)C(O)(CCN1CCC(c2ccccc2)C1)P(=O)(O)O (stereo not drawn) . State its measured ED50.
0.07

Kindly indicate its recorded ED50. Item: O=P(O)(O)C(O)(C1CCCCN1)P(=O)(O)O (stereo not drawn)
0.05

All values here come from ChEMBL document CHEMBL1135550.
